target: UniProtKB Q99594; assay: Thermal shift assay TEAD3; type: binding
Sequence (Q99594 whole entry, species assumed): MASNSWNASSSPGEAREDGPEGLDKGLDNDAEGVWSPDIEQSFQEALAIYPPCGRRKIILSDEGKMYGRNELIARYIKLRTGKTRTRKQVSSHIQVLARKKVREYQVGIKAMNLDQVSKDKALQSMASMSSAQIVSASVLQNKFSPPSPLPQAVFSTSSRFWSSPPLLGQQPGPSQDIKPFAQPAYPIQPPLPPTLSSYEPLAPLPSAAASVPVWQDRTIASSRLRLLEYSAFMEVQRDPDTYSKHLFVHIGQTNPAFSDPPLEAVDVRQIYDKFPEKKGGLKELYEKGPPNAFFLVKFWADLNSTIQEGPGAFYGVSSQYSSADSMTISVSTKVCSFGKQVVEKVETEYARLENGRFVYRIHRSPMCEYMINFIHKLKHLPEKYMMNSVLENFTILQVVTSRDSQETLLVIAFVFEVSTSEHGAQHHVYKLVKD
What TEAD3 ΔTm was measured for each of the following?
Lab book: enter the figure in °C, no units written.

Quick check: TEAD3 ΔTm of O=C(O)[C@@H]1CC1c1cc(-c2ccc(C(F)(F)F)cc2)cc2cccnc12 (mixture of isomers) ?
1.8

Quick check: TEAD3 ΔTm of CNS(=O)(=O)[C@@H]1C[C@H]1c1cc(Oc2ccc(C(F)(F)F)cc2)cc2c1NCCC2 (racemic) ?
1.0

Quick check: TEAD3 ΔTm of Cn1cc2cc(O[C@H]3CC[C@@H](C(F)(F)F)CC3)cc([C@@H]3C[C@H]3C(=O)N3CC(O)C3)c2n1 (single isomer, unassigned) [Example 87a] ?
1.0

Quick check: TEAD3 ΔTm of O=C(O)[C@@H]1CC1c1cc(-c2ccc(C(F)(F)F)cc2)cc2cn(-c3cccnc3)nc12 (mixture of isomers) ?
1.1

Quick check: TEAD3 ΔTm of CNS(=O)(=O)[C@@H]1CC1c1cc(Oc2ccc(C(F)(F)F)cc2)cc2cn(C)nc12 (mixture of isomers) ?
10.6

Quick check: TEAD3 ΔTm of CNS(=O)(=O)CCc1cc(Oc2ccc(C(F)(F)F)cc2)cc2cccnc12 ?
10.2

Quick check: TEAD3 ΔTm of Cn1cc2cc(Oc3ccc(C(F)F)cc3)cc([C@@H]3C[C@H]3C(=O)N3CC(O)C3)c2n1 (single isomer, unassigned) [Example 89a] ?
0.2

Quick check: TEAD3 ΔTm of Cn1cc2cc(Oc3ccc(C(F)(F)F)cc3)cc(C3C[C@H]3C(=O)NC3CC4(CC(O)C4)C3)c2n1 (single isomer, unassigned) ?
6.4

Quick check: TEAD3 ΔTm of CNC(=O)[C@@H]1CC1c1cc(Oc2ccc(C(F)(F)F)cc2)cc2cn(C)nc12 (mixture of isomers) ?
6.6

Quick check: TEAD3 ΔTm of CCNC(=O)[C@@H]1CC1c1cc(-c2ccc(C(F)(F)F)cc2)cc2c1=NC(C)N=2 (mixture of isomers) ?
0.7

Quick check: TEAD3 ΔTm of O=C(O)[C@@H]1CC1c1cc(-c2ccc(C(F)(F)F)cc2)cc2c1cnn2C(F)F (mixture of isomers) ?
1.2

Quick check: TEAD3 ΔTm of CN1Cc2cc(-c3ccc(C(F)(F)F)cc3)cc(C3C[C@H]3C(=O)O)c2C1=O (mixture of isomers) ?
1.2

Quick check: TEAD3 ΔTm of Cn1cc2cc(Oc3ccc(C(F)(F)F)cc3)cc([C@@H]3C[C@H]3C(=O)N3CCC34CC(=O)C4)c2n1 (single isomer, unassigned) ?
18.0
